Value source: patent US11931424B2

Entries and their Synergy Score
Test system: panel of breast cancer cell lines
Assay: Compound A with targeted agents and chemotherapies, 72-hour in vitro proliferation assays
Type: cell-based
Conditions: BT-20 cell line; compound A × partner; 72-hour proliferation
// keep it numeric: no unit symbol after the value

Use these answered entries as a reference point.
1. CN(C)C(=O)c1cc2cnc(Nc3ccc(N4CCNCC4)cn3)nc2n1C1CCCC1 ... 2.30
2. Cn1ncnc1[C@H]1c2n[nH]c(=O)c3cc(F)cc(c23)N[C@@H]1c1ccc(F)cc1 ... 13.00
3. CC1(C)CCC(c2ccc(Cl)cc2)=C(CN2CCN(c3ccc(C(=O)NS(=O)(=O)c4ccc(N[C@H](CCN5CCOCC5)CSc5ccccc5)c(S(=O)(=O)C(F)(F)F)c4)cc3)CC2)C1 ... 84.06

State, in one line, measured Synergy Score of C[C@]12CC[C@@H]3c4ccc(O)cc4C[C@@H](CCCCCCCCC[S+]([O-])CCCC(F)(F)C(F)(F)F)[C@H]3[C@@H]1CC[C@@H]2O (some centres unmarked)
8.19

State, in one line, measured Synergy Score of CO[C@H]1C[C@@H]2CC[C@@H](C)[C@@](O)(O2)C(=O)C(=O)N2CCCC[C@H]2C(=O)O[C@H]([C@H](C)C[C@@H]2CC[C@@H](OCCO)[C@H](OC)C2)CC(=O)[C@H](C)/C=C(\C)[C@@H](O)[C@@H](OC)C(=O)[C@H](C)C[C@H](C)/C=C/C=C/C=C/1C
11.08
